Assay: chemical genetic growth profiling, strain panel (AID 1159580);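 further: tested at 20 µM; growth read once vehicle control cultures reached saturation at 30 °C; 1 = growth at the plate median or of vehicle wells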
Conditions: S. cerevisiae deletion strains, growth OD, locus YJR043C, strain POL32
Hit rate of the full screen: of about 5,500 compounds, about 2,000 (36%) were called active. Roughly 18% stayed inconclusive and do not appear here. No stated cut-off is given here; in the data, active means normalized growth mostly below about 0.91 (no sharp cut-off); inconclusive means no clear call, values can overlap the other calls; inactive means mostly above about 0.92. Some of the results follow.
Just give me one of these, please: active, inactive

Examples with answers:
{"Molecule": "CCOc1ccc(/C=C(\\C)[N+](=O)[O-])cc1OC", "Assigned Category": "active"}
{"Molecule": "Fc1cccc(Cl)c1CSc1nncn1-c1ccc(OCc2ccccc2)cc1", "Assigned Category": "inactive"}
{"Molecule": "COC(=O)c1cc([N+](=O)[O-])ccc1NC(C)=O", "Assigned Category": "inactive"}
{"Molecule": "Cc1cc(C)c(I)c(C)c1", "Assigned Category": "inactive"}
{"Molecule": "Nc1nc2ncc(C(=O)O)nc2c(=O)[nH]1", "Assigned Category": "inactive"}
{"Molecule": "O=S(=O)(N/N=C\\c1ccc(Cl)cc1)c1ccc(-c2ccccn2)s1", "Assigned Category": "inactive"}
{"Molecule": "C#CCOc1c(Cl)cccc1Cl", "Assigned Category": "inactive"}
{"Molecule": "NC[C@H](O)c1ccc(O)c(O)c1", "Assigned Category": "inactive"}
{"Molecule": "CC1(C)C(O)CC(O)C2(C)C1CC(=O)C1(C)C2CCC2(C)C(C(=O)O)OC(=O)C3OC321 (stereo not drawn)", "Assigned Category": "inactive"}
{"Molecule": "CC(=O)O[C@H]1C[C@@H](OC(C)=O)C(C)(C)C2C[C@@H](OC(C)=O)[C@@]3(C)C4=CC(=O)O[C@@H](c5ccoc5)[C@]4(C)CCC3[C@]21C (stereo partly drawn)", "Assigned Category": "inactive"}

Q. Record request — test call for O=[N+]([O-])c1ccc2nsnc2c1
A. active

Q. Record request — test call for Oc1ccc(Cl)c2cccnc12
A. active

Q. Record request — test call for C=C(CC)C(=O)c1ccc(OCC(=O)O)c(Cl)c1Cl
A. inactive

Q. Record request — test call for CCCC1O[C@@H]2CC3C4CCC5=CC(=O)C=CC5(C)C4[C@@H](O)CC3(C)[C@]2(C(=O)CO)O1 (stereo partly drawn)
A. inactive

Q. Record request — test call for O=[N+]([O-])c1ccc(O)c([N+](=O)[O-])c1
A. inactive

Q. Record request — test call for CNC[C@@H](O)c1ccc(O)c(O)c1
A. inactive

Q. Record request — test call for Oc1c(Br)cc(Br)c2cccnc12
A. active

---

Reported normalized growth values are given for each entry in this list.
Experiment: chemical genetic growth profiling, strain panel (AID 1159580);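 further: tested at 20 µM; growth read once vehicle control cultures reached saturation at 30 °C; 1 = growth at the plate median or of vehicle wells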
Settings: S. cerevisiae deletion strains, growth OD, locus YPL055C, strain LGE1, stronger effect = lower value
Hit rate of the full screen: of about 5,500 compounds, about 2,000 (36%) were called active. Inconclusive results (about 18%) are left out. Some of the results follow.
Give your answer as a number; write no unit.

Worked cases, normalized growth given:
{"Compound": "CC(C)N(C(=O)SCC(Cl)=C(Cl)Cl)C(C)C", "Recorded Measurement": 1.04}
{"Compound": "O=C(O)CF", "Recorded Measurement": 1.04}
{"Compound": "Nc1nc2ncc(C(=O)O)nc2c(=O)[nH]1", "Recorded Measurement": 1.01}
{"Compound": "NC(=S)N/N=C\\c1ccccc1", "Recorded Measurement": 0.872}
{"Compound": "CN/C(=C\\[N+](=O)[O-])NCCSCc1ccc(CN(C)C)o1", "Recorded Measurement": 0.991}

Q. Would you mind telling me what normalized growth value was observed for Cc1ccc(/C(=C\CN2CCCC2)c2ccccn2)cc1 ?
A. 1.02

Q. Would you mind telling me what normalized growth value was observed for C=CC(C1=CC(=O)C(OC)=CC1=O)c1ccccc1 (configuration not stated) ?
A. 0.816
